Entries and their measured log10(kcat) follow.
B1: glmS ribozyme (parent)
chain: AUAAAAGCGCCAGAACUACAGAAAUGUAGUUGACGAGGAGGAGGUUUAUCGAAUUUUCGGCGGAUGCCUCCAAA

# Variants of: B1
# assayExplanation: kcat; higher = faster cleavage; RNA array
# measurementParameters: with glucosamine-6-phosphate
Fewer inactive variants are shown than the library holds.
measuredAttribute: log10(kcat) (log10 of the value in s⁻¹)

>>> print(df.to_string())
                     changes  measuredattribute  reported
 0                 A53C G66U        log10(kcat)     -3.32
 1                 G13A G32C        log10(kcat)     -3.25
 2                 A52G A53U        log10(kcat)     -3.58
 3                 G44U U46G        log10(kcat)     -3.66
 4                 A15C G32C        log10(kcat)     -3.74
 5                 U30C A42G        log10(kcat)     -3.34
 6                 A12G C58G        log10(kcat)     -3.93
 7                 G13A U56C        log10(kcat)     -3.37
 8                 A42U C70A        log10(kcat)     -3.89
 9                 A53G U69G        log10(kcat)     -4.22
10  C16G C50A U57C C68U C71G        log10(kcat)     -4.53
11                 G29A U57A        log10(kcat)     -4.40
12                 C10U U31A        log10(kcat)     -4.56
13                 A12C A39U        log10(kcat)     -1.92
14            A20G C58U C70G        log10(kcat)     -4.14
15                 U65A C68A        log10(kcat)     -4.05
16                 G38A C58G        log10(kcat)     -4.94
17                 A42U C68U        log10(kcat)     -3.46
18                  A6G U54A        log10(kcat)     -3.25
19                 A39U A52G        log10(kcat)     -2.95
20                 G51C U69G        log10(kcat)     -4.77
21                  A6C U47C        log10(kcat)     -4.99
22                  G7A C70U        log10(kcat)     -4.19
23                 A53C A64G        log10(kcat)     -2.47
24            A64G U69G C71A        log10(kcat)     -4.64
25                 A42C U69G        log10(kcat)     -2.20
26            U47G U56C A64G        log10(kcat)     -3.95
27                 U30C A64G        log10(kcat)     -3.45
28                 G44A U45G        log10(kcat)     -2.42
29                 G29C U46C        log10(kcat)     -4.02
30                 C50A C67G        log10(kcat)     -4.53
31                 U56G A64C        log10(kcat)     -4.14
32                 A53U U56A        log10(kcat)     -2.16
33                 A12U A36U        log10(kcat)     -4.69
34                 A52G C70U        log10(kcat)     -2.58
35                 A12U U47A        log10(kcat)     -1.20
36            G29C A48U U69G        log10(kcat)     -4.20
37            A12C U54G G66U        log10(kcat)     -2.76
38                 A39U A48U        log10(kcat)     -3.51
39                 A42G C70A        log10(kcat)     -3.74
40                 U54G C61U        log10(kcat)     -4.55
41                 C11U G29A        log10(kcat)     -3.20
42                 A15G U47G        log10(kcat)     -2.38
43       G13C A14C C61A C67U        log10(kcat)     -4.51
44                 U65A C70A        log10(kcat)     -4.13
45                 A39G G41U        log10(kcat)     -2.85
46                 A52G G62A        log10(kcat)     -4.65
47                 G41A A64G        log10(kcat)     -2.68
48                 U31C U46A        log10(kcat)     -3.54
